The values you see were collected from patent EP0054589B1.

test system: egg plant; test: Phytotoxicity observed visually in the mite test on egg plant; type: in vivo; design: key: —: None; +: Slightly toxic; ++: Toxic; +++: Strongly toxic; details: Table 13; 500 ppm; observed visually on the 7th day after the application
metric_name: Phytotoxicit

Below, each entry is followed by its recorded Phytotoxicit result.
molecule	observed
CCCSP(=S)(OC)Oc1ccc2c(c1)OC(C)=CC2(C)C (stereo not shown)	—
CCCSP(=O)(OCC)Oc1ccc2c(c1)OC(C)=CC2(C)C (stereo not shown)	—
CCCSP(=S)(OCC)Oc1ccc2c(c1)OC(C)=CC2(C)C (stereo not shown)	—
CCOP(=S)(Oc1ccc2c(c1)OC(C)=CC2(C)C)SC(C)CC (stereo not shown)	—
CCCSP(=O)(OC)Oc1ccc2c(c1)OC(C)=CC2(C)C (stereo not shown)	—

Ask | Consider the molecule CCOP(=O)(Oc1ccc2c(c1)OC(C)=CC2(C)C)SC(C)CC (stereo not shown) and give its measured Phytotoxicit.
Reply | —

###

Tested on: tobacco cutworm
Test: Long-lasting insecticidal effect on tobacco cutworm (sprayed cabbage plantlet)
Assay type: in vivo, Prodenia litura
Conditions: Table 5; concentration 500 (unit not given); leaves cut on 10th day, mortality after 48 hours
Description: (A) An emulsifiable concentrate prepared as described in Formulation Example 2 was diluted with water to a predetermined concentration and sprayed onto a cabbage plantlet in a flower pot of 15 cm in diameter using a spray-gun sufficiently and the tests plants were placed in a green house. […] After 48 hours, percent mortality was assessed. […]
Measured Percent Mortality After Application 10th Day by item
Give just the number in %; leave the unit off.

compound	observed
CCC(C)SP(=O)(OC)Oc1ccc2c(c1)OC(C)=CC2(C)C (stereo not drawn)	100

Ask | I would be grateful if you could share the reported Percent Mortality After Application 10th Day for CCCSP(=S)(OC)Oc1ccc2c(c1)OC(C)=CC2(C)C (stereo not drawn) .
Reply | 100

Ask | For the compound CCCSP(=O)(OCC)Oc1ccc2c(c1)OC(C)CC2(C)C (stereo not drawn) , what Percent Mortality After Application 10th Day is on record?
Reply | 100

Ask | So what does the record say about Percent Mortality After Application 10th Day for CCCSP(=O)(OCC)Oc1ccc2c(c1)OC(C)=CC2(C)C (stereo not drawn) ?
Reply | 100

Ask | I am curious: what Percent Mortality After Application 10th Day value has been reported for CNC(=O)ON=C(C)SC [Lannate, reference compound] ?
Reply | 0

Ask | Reported Percent Mortality After Application 10th Day for COP1(=S)OCc2ccccc2O1 (stereo not drawn) [Salithion, reference compound] : what is it?
Reply | 0

Ask | Can you look up the measured Percent Mortality After Application 10th Day of CCCSP(=O)(OC)Oc1ccc2c(c1)OC(C)=CC2(C)C (stereo not drawn) for me?
Reply | 100

Ask | Request the reported Percent Mortality After Application 10th Day associated with CCCSP(=S)(OCC)Oc1ccc2c(c1)OC(C)=CC2(C)C (stereo not drawn)
Reply | 100

Ask | Give the measured Percent Mortality After Application 10th Day of CCCSP(=O)(OCC)Oc1ccc2c(c1)OC(C)(C)C=C2C (stereo not drawn) .
Reply | 100

###

system: tobacco cutworm; experiment: Long-lasting insecticidal effect on tobacco cutworm (sprayed cabbage plantlet); assay type: in vivo, Prodenia litura; conditions: Table 6; concentration 500 (unit not given); leaves cut on 10th day, mortality after 48 hours
Each entry below lists one item and its recorded Percent Mortality After Application 10th Day value.
Kindly answer with a numeric value in %, unit omitted.

compound	observed
CCC(C)SP(=O)(OC)Oc1ccc2c(c1)OC(C)(C)C=C2C (stereo not shown) [Compound No. 24]	23.3

Ask | Which measured Percent Mortality After Application 10th Day value corresponds to CCCSP(=O)(OCC)Oc1ccc2c(c1)OC(C)CC2(C)C (stereo not shown) [compound 17] ?
Reply | 93.3

Ask | What value of Percent Mortality After Application 10th Day has been recorded for this entry: CCCSP(=O)(OCC)Oc1cccc2c1C(C)=CC(C)(C)O2 (stereo not shown) [Compound No. 22]
Reply | 53.3

Ask | Quick one: Percent Mortality After Application 10th Day of CCCSP(=O)(OCC)Oc1ccc2c(c1)OC(C)(C)C=C2C (stereo not shown) [Compound No. 20] ?
Reply | 90.0
